Kindly supply the reported Blood ethanol concentration values for the records listed here.
Tested on: Rattus norvegicus
Test: Effect of compound (25 mg/kg) on Blood Ethanol level in Ethanol loaded rats after 30 minutes
Assay type: functional
Kindly provide the numeric value in mg/mL only, without the unit symbol.

Query :: Which Blood ethanol concentration value is on record for C=C1CC[C@H]2C(=C)CC[C@H]3C(=C)C(=O)O[C@@H]3[C@@H]12 [DEHYDROCOSTUSLACTONE] ?
Result :: 0.57

Query :: Which Blood ethanol concentration value is on record for C=C1C(=O)O[C@@H]2/C=C(\C)CC/C=C(\C)CC[C@@H]12 [COSTUNOLIDE] ?
Result :: 0.23

Query :: Which Blood ethanol concentration value is on record for "C=C1CCOC1=O" ?
Result :: 0.09

Query :: Which Blood ethanol concentration value is on record for "C=C1C(=O)O[C@@H]2[C@H]3C(C)=CC[C@@H](O)[C@]3(C)CC[C@@H]12" ?
Result :: 0.4

Query :: Which Blood ethanol concentration value is on record for "C=C1CCC[C@]2(C)CC[C@@H](C(C)(C)O)C[C@@H]12" ?
Result :: 0.79
